Recorded MIC by entry
Tested on: Pseudomonas aeruginosa
Experiment: Antibacterial activity against Pseudomonas aeruginosa after 18 to 24 hrs by broth macrodilution method
Format: functional
measured_quantity: MIC (µg/mL)

| structure_smiles | subject_of_test | relation | recorded_value |
| --- | --- | --- | --- |
| COCNC1=CC(=O)c2ccccc2C1=O | Pseudomonas aeruginosa | ≥ | 256 |
| C#CCOCNC1=CC(=O)c2ccccc2C1=O | Pseudomonas aeruginosa | = | 16 |
| CCOCNC1=CC(=O)c2ccccc2C1=O | Pseudomonas aeruginosa | = | 128 |
| O=C(O)c1cn(C2CC2)c2cc(N3CCNCC3)c(F)cc2c1=O | Pseudomonas aeruginosa | = | 1 |

----------
System: Staphylococcus aureus
Experiment: Antibacterial activity against Staphylococcus aureus ATCC 25923 after 18 to 24 hrs by disc diffusion assay
Assay type: functional
Each entry below lists one item and its recorded diameter of the inhibition zone (DIZ) value.
measured_quantity: diameter of the inhibition zone (DIZ) (mm)

| structure_smiles | unit_string | recorded_value |
| --- | --- | --- |
| C#CCOCNC1=CC(=O)c2ccccc2C1=O | mm | 16 |
| CCOCNC1=CC(=O)c2ccccc2C1=O | mm | 15 |
| CN[C@H](CC(C)C)C(=O)N[C@H]1C(=O)N[C@@H](CC(N)=O)C(=O)N[C@H]2C(=O)N[C@H]3C(=O)N[C@H](C(=O)N[C@H](C(=O)O)c4cc(O)cc(O)c4-c4cc3ccc4O)[C@H](O)c3ccc(c(Cl)c3)Oc3cc2cc(c3O[C@@H]2O[C@H](CO)[C@@H](O)[C@H](O)[C@H]2O[C@H]2C[C@](C)(N)[C@H](O)[C@H](C)O2)Oc2ccc(cc2Cl)[C@H]1O | mm | 16 |
| COCNC1=CC(=O)c2ccccc2C1=O | mm | 17 |

Cited source for all entries: ChEMBL document CHEMBL2375322
